target: mouse TMEM16A mutant V599A (Mus musculus, UniProt Q8BHY3, V599A); construct: expressed in transfected cells; host or cells: HEK293T; experiment: Inside-out patch recording of 1PBC block, mutant V599A; format: cell-based; conditions: 40 mV; 15 µM Ca2+
Sequence (Q8BHY3 whole entry V599A): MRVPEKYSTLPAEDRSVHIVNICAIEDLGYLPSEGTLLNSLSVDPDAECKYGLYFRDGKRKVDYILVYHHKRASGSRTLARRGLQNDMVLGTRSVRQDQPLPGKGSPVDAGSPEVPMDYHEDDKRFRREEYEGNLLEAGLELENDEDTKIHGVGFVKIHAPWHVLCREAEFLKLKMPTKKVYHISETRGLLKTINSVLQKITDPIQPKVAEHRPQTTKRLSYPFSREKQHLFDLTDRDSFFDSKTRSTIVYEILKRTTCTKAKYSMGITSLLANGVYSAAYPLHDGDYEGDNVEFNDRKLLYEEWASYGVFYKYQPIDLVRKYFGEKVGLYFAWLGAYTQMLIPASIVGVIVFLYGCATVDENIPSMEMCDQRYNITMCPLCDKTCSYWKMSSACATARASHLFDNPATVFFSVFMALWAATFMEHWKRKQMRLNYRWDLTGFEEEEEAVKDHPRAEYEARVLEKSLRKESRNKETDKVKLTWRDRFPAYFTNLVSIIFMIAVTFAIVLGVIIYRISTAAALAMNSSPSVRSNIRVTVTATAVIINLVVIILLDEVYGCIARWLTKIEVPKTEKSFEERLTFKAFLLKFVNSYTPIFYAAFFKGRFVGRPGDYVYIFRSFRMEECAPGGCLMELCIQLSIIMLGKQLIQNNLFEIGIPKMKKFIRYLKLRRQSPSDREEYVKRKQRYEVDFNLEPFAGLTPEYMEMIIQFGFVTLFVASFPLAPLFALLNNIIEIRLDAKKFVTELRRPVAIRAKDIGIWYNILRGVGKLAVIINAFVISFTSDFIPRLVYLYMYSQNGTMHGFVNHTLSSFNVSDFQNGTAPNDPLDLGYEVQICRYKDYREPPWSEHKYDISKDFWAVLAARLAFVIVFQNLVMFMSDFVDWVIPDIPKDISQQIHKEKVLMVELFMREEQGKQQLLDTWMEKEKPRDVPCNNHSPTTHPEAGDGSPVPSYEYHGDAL

compound_structure: N#Cc1c(C(F)(F)F)cc(O)n2c1nc1ccccc12
readout_unit: µM
IC50: 55.5

---

Target: mouse TMEM16A mutant V599A (Mus musculus, UniProt Q8BHY3, V599A)
Construct: expressed in transfected cells; host or cells: HEK293T
Test: Inside-out patch recording of 1PBC block, mutant V599A
Assay type: cell-based
Conditions: V599A; V -100 mV
Experimental: HEK293T cells (ATCC CRL-1573) were maintained in Dulbecco’s modified Eagle’s medium (DMEM; Sigma-Aldrich) supplemented with 10 U ml^−1 penicillin, 0.1 mg ml^−1 streptomycin (Sigma-Aldrich), 2 mM L-glutamine (Sigma-Aldrich), and 10% FBS (Sigma-Aldrich) in a humidified atmosphere containing 5% CO2 at 37 °C. […]
pIC50: −log10 of the molar value.

compound_structure: N#Cc1c(C(F)(F)F)cc(O)n2c1nc1ccccc12
pIC50: 3.96

Where these numbers come from: paper PMC9120017
